target: T1, hK1 (human tissue kallikrein 1), recombinant (human, UniProt P06870 25-262); assay: SPR
T1 construct: Expressed in P. pastoris from KLK1 cDNA and purified; enzymatically active; also called KLK1; Recombinant (Pichia) Kallikrein
readout: Kd (nM)
Kindly answer with a numeric value in nM, unit omitted.

Some entries whose results are on file:
binder | readout | experimental.result
M0102-D07 (Fab, V domains shown) VH: EVQLLESGGGLVQPGGSLRLSCAASGFTFSRYWMWWVRQAPGKGLEWVSSIGPSGGATRYADSVKGRFTISRDNSKNTLYLQMNSLRAEDTAVYYCTTGSAGNWGQGTLVTVSS VL: DIQMTQSPGTLSLSPGERATLSCGASQSVSTTYIAWYQHKPGQPPRLLIYGASNRATGIPDRFRGSGSGTDFTLTISRLEPEDFAVYYCQQYGSSPYTFGQGTKLEIKR | Kd | 78.6
M0132-D08 (Fab, V domains shown) VH: EVQLLESGGGLVQPGGSLRLSCAASGFTFSHYLMYWVRQAPGKGLEWVSWIGPSGGHTMYADSVKGRFTISRDNSKNTLYLQMNSLRAEDTAVYYCARLQQGLDYWGQGTLVTVSS VL: DIQMTQSPSTLSASVGDRVTITCRASQSISNWLAWYQQKPGKAPKLLIYMASTLESGVPSRFSGSGSGTEFTLTISSLQPADFATYYCQQYNSYSVTFGGGTKVEIKR | Kd | 4.73

Next item in the queue.
[Q] Read off the recorded Kd for M0138-C09 (Fab, V domains shown) VH: EVQLLESGGGLVQPGGSLRLSCAASGFTFSPYRMSWVRQAPGKGLEWVSVISPSGGITEYADSVKGRFTISRDNSKNTLYLQMNSLRAEDTAVYYCAKHERGSGYYVTPPAGAFDIWGQGTMVTVSS VL: AQSELTQPASVAGSPGQSITISCTGTSSDVGLYNFVSWYQQHPGKAPKLMIYDVSRRPSGVSNRFSASKSGTRASLTVSGLQAEDEADYYCSSYAGSNNYVFGTGTKVTVLG
[A] 8.78
